# ASSAY INFO: inhibitors of TNF-alpha triggered necroptosis, primary screen, cell-based, Jurkat FADD-/-, single concentration (AID 463075);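 note: necroptosis triggered by 40 ng/mL TNF-alpha added together with compound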
# PARTICULARS: Jurkat FADD-/- TNF necroptosis rescue, ATP luminescence, 24 h; at 10 µM; stronger effect = higher value; 0 = TNF only, 100 = no-TNF cells
Screen size: about 220,000 compounds; about 150 (0.068%) were called active. Only a selection was taken, and actives are over-represented in it overall.
READOUT NAME: activation (protection from cell death)

Worked set:
> print(dat)
                                   compound                             readout.name  observed.measurement
1  C=C(Cl)COC(=O)C1C2C=CC(C2)C1C(=O)O (stereo unspecified)  activation (protection from cell death)     -1.48% (inactive)
2  O=C(CC1C(=O)NCCN1Cc1ccc(-c2ccccc2)cc1)NCc1ccncc1 (stereo unspecified)  activation (protection from cell death)     0.134% (inactive)

input: Need activation (protection from cell death) of CN(C(=O)c1c(Cl)cnn1C)C12CC3CC(CC(C3)C1)C2 , thanks.
output: -0.801% (inactive)

input: Please do the same for S=C(Nc1ccc(Br)cc1Cl)NC1CCN(Cc2ccccc2)CC1 as well.
output: 1.9% (inactive)

input: Same thing, different compound: CCC(C)n1c(-c2cc(OC)c(OC)c(OC)c2)nc2nc3ccccc3nc21 (stereo unspecified)
output: -16.6% (inactive)

input: Same for Cc1cccc(C(=O)N2CCc3c([nH]c4ccccc34)C2CC(C)C)n1 (stereo unspecified)
output: 1.18% (inactive)

###

# ASSAY INFO: inhibitors of TNF-alpha triggered necroptosis, primary screen, cell-based, Jurkat FADD-/-, single concentration (AID 463075);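 note: necroptosis triggered by 40 ng/mL TNF-alpha added together with compound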
# PARTICULARS: Jurkat FADD-/- TNF necroptosis rescue, ATP luminescence, 24 h; at 10 µM; stronger effect = higher value; 0 = TNF only, 100 = no-TNF cells
Screen size: about 220,000 compounds; about 150 (0.068%) were called active. What follows is part of a selection rich in actives, with near analogues and random picks from the rest.
As shown below, each of these compounds has a reported activation (protection from cell death) value.

For orientation, consider the following solved cases.
> print(dat)
                                   compound                             readout.name  observed.measurement
1              Cc1nnsc1C(=O)NCc1c(F)cccc1Cl  activation (protection from cell death)        72.6% (active)
2  CCCN=C1NC(=O)C(CC(=O)NCCc2ccc(OC)c(OC)c2)S1 (centres undefined)  activation (protection from cell death)      1.06% (inactive)

input: Record request: activation (protection from cell death) value, item COc1ccc(NC(=O)C2=C(C)NC(=O)NC2c2ccccc2[N+](=O)[O-])cc1 (centres undefined)
output: 0.73% (inactive)

input: Another compound: Cc1nc(-c2ccccc2)cn2c1nc1ccccc12
output: 0.981% (inactive)

input: Please answer likewise for CCOC(=O)c1c(N)sc2c1CCCC2=O
output: -2.66% (inactive)

###

Entries and their measured activation (protection from cell death) follow.
# ASSAY INFO: inhibitors of TNF-alpha triggered necroptosis, primary screen, cell-based, Jurkat FADD-/-, single concentration (AID 463075);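 note: necroptosis triggered by 40 ng/mL TNF-alpha added together with compound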
# PARTICULARS: Jurkat FADD-/- TNF necroptosis rescue, ATP luminescence, 24 h; at 10 µM; stronger effect = higher value; 0 = TNF only, 100 = no-TNF cells
The whole screen tested about 220,000 compounds, of which about 150 (0.068%) were called active. Many of the other results were omitted from the sample, so actives are more common in it than they were.
Answer with a number only, understood to be in %.

> print(dat)
                                   compound                             readout.name  observed.measurement
1  Cc1nn(C)c(C)c1S(=O)(=O)N1CCC(CO)(Cc2ccc(Cl)cc2)CC1  activation (protection from cell death)                -0.682
2  COc1cc(OC)cc(C(=O)NC2CCN(C(=O)N3c4ccccc4Sc4ccccc43)CC2)c1  activation (protection from cell death)                 -2.58
3  O=C1OCC2=C1C(c1ccccc1)CC(=O)N2c1cccc(F)c1 (stereo unspecified)  activation (protection from cell death)                -0.757
4          O=C(Nc1ccc(F)cc1)c1cc2c(s1)CCCC2  activation (protection from cell death)                 -1.43
5  COC(=O)c1ccc(NC(=O)CSc2nncc3ccc(OC)c(OC)c23)cc1  activation (protection from cell death)                -0.335

input: Find the recorded activation (protection from cell death) belonging to Cc1ccc(NC(=O)c2cccs2)cc1S(=O)(=O)N(C)C and report it.
output: 1.75

input: Now this one: O=C(NC(=O)N1CCSCC1)c1c(Cl)cccc1Cl
output: 3.73

input: One more compound: CC(C)c1nc(CNC(=O)CC2C(=O)NCCN2Cc2ccoc2)cs1 (stereo unspecified)
output: -0.307

input: Same read-out for Cc1cc(C(=O)OCC(=O)Nc2ccc(F)c(F)c2)c(C)o1 ?
output: 3.31

input: Then Oc1ccc(/C=N/Nc2ccc(C(F)(F)F)cn2)cc1O ?
output: 30.8

###

# ASSAY INFO: inhibitors of TNF-alpha triggered necroptosis, primary screen, cell-based, Jurkat FADD-/-, single concentration (AID 463075);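 note: necroptosis triggered by 40 ng/mL TNF-alpha added together with compound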
# PARTICULARS: Jurkat FADD-/- TNF necroptosis rescue, ATP luminescence, 24 h; at 10 µM; stronger effect = higher value; 0 = TNF only, 100 = no-TNF cells
Out of some 220,000 compounds screened, about 150 (0.068%) were called active. The entries come from a sample that favours actives as a whole.
Lab note: anything with activation (protection from cell death) at or over -10% counts as fulfilled; the rest go in not fulfilled.

> print(dat)
                                   compound   category
1     CCOc1cccc(C(=O)Nc2cnn(Cc3ccccc3)c2)c1  fulfilled
2  CCN1C(=O)/C(=C2/Sc3ccc(OC)cc3N2C)SC1=Nc1ccc(C)cc1  fulfilled
3                 Cc1nc(N2CCOCC2)sc1C(=O)NN  fulfilled

input: Has Cc1cc(=O)oc2cc(OCC3CC(c4ccccc4Cl)=NO3)ccc12 (stereo unspecified) a recorded activation (protection from cell death) greater than or equal to -10%?
output: not fulfilled

input: Do the same for Cc1ccc(O)c(-c2cc(C(=O)NCc3ccccc3)[nH]n2)c1 please
output: not fulfilled

input: Quick one: COC(=O)COc1cccc2c(=O)n(CC(=O)NCc3ccccc3)ccc12
output: not fulfilled

###

# ASSAY INFO: inhibitors of TNF-alpha triggered necroptosis, primary screen, cell-based, Jurkat FADD-/-, single concentration (AID 463075);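 note: necroptosis triggered by 40 ng/mL TNF-alpha added together with compound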
# PARTICULARS: Jurkat FADD-/- TNF necroptosis rescue, ATP luminescence, 24 h; at 10 µM; stronger effect = higher value; 0 = TNF only, 100 = no-TNF cells
The whole screen tested about 220,000 compounds, of which about 150 (0.068%) were called active. Shown is part of a subset that was picked to be rich in actives.
# activation (protection from cell death) per record follows
Express the result in % but write the number alone.

Observe how each entry below is paired with its result.
> print(dat)
                                   molecule  observed.measurement
1              COc1cc2nc(Cl)nc(NCCO)c2cc1OC               -0.0465
2  Cc1cc(C(=O)COC(=O)C2CC2)c(C)n1-c1ccc(F)cc1                -0.153
3  O=C(Cc1cccc2ccccc12)NNC(=O)Nc1ccc(Cl)cc1                  7.05
4  CCN(Cc1ccncc1)C(=O)c1cccc(S(=O)(=O)N2CCOCC2)c1                 0.919

input: Which activation (protection from cell death) reading was recorded for the molecule CC(C)N(C(=O)Cn1cc(SCC(=O)N2CCCC2)c2ccccc21)C(C)C ?
output: 1.35

input: Record: Cc1cccc(NC(=O)c2nc[nH]c2C(=O)NCC(=O)OCc2ccccc2)c1
output: -9.45

###

# ASSAY INFO: inhibitors of TNF-alpha triggered necroptosis, primary screen, cell-based, Jurkat FADD-/-, single concentration (AID 463075);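 note: necroptosis triggered by 40 ng/mL TNF-alpha added together with compound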
# PARTICULARS: Jurkat FADD-/- TNF necroptosis rescue, ATP luminescence, 24 h; at 10 µM; stronger effect = higher value; 0 = TNF only, 100 = no-TNF cells
Hit rate of the full screen: of about 220,000 compounds, about 150 (0.068%) were called active. The full list was thinned out, with actives kept by preference.
READOUT NAME: activation (protection from cell death) (%)
Give your result in % as a bare value.

> print(dat)
                                   compound  unit.name  observed.measurement
1      Cc1ccc(NC(=O)c2ccc(Oc3ncccn3)cc2)cc1          %                -0.146
2  CCNc1ccc(C(=O)OCC(=O)N2c3ccccc3NC(=O)C2(C)C)cc1[N+](=O)[O-]          %                  1.58
3        Cc1cc([N+](=O)[O-])nn1Cc1ccc(F)cc1          %                  76.6
4  CCOC(=O)C1=NN(c2ccc(Cl)cc2)/C(=C/C2=NCCc3cc(OC)c(OC)cc32)S1          %                 -2.32
5     COC(=O)CCNC(=O)c1ccc2[nH]c(C)c(C)c2c1          %                -0.237

input: Item COc1cc(C=O)ccc1Oc1nnnn1-c1ccccc1 has what recorded activation (protection from cell death)?
output: -3.04

input: Again, but for C=C1C2C[C@H](O)C(C)(C)[C@@]2(O)[C@H](O)C[C@]23C[C@@](C)(O)[C@H](CC[C@H]12)[C@H]3O (some centres not stated)
output: 1.07

input: Entry to check: COC(=O)C1CCN(CC(N)=O)CC1
output: 1.78

input: Similarly, CS(=O)(=O)c1ccc2nc(NC(=O)c3ccc(N4CCCC4=O)cc3)sc2c1 ?
output: -0.943
